# System: L. donovani amastigotes
# assaySummary: INMAC assay: intramacrophage L. donovani in differentiated THP-1 cells
# Type: cell-based, Leishmania donovani
# runParameters: Leishmania donovani, THP-1; Table 2; at least three replicates, SD ≤0.4; read-out: INMAC (pEC50) (converted)
quantityName: EC50 (µM)
Numeric only. Scale: µM

| structureString | quantityName | unitLabel | recordedNumber |
| --- | --- | --- | --- |
| O=C(Nc1cccc(-c2cn3cc(N4CCOCC4)cnc3n2)c1)N1CCCC1 | EC50 | µM | 12.6 |

Please turn your attention to the following entry.
// query For the compound `COc1ccc(-c2cn3cc(N4CCOCC4)cnc3n2)cc1NC(=O)N1CCCC1` , what EC50 is on record?
// result 20
